study_system: human Peroxisome Proliferator-activated Receptor delta (PPARd), PPARD (gene 5467)
test: ATG_PPARd_TRANS: Attagene TRANS-FACTORIAL HepG2 Assay for human Peroxisome Proliferator-activated Receptor delta (PPARd) (AID 2283002)
Records with an inconclusive call do not appear. Activity calls are given as the source filed them. Rule for the calls: active = hit-call score of the fitted dose curve at least 0.9, where 1 is the maximum; inconclusive = response in the unintended direction; inactive = score below 0.9.
Classes used: y = active, n = inactive

> print(dat)
                                    compound  assigned.label
 1                    Cc1ccc(O)c(C(C)(C)C)c1               n
 2                  CCCCCCCCCCCCCOS(=O)(=O)O               n
 3           CNCCCC12CCC(c3ccccc31)c1ccccc12               n
 4                     O=C1CCCCCCCCCCOCCCCO1               n
 5                         CCC(=O)OCc1ccccc1               n
 6  O=C(O)CN(CCN(CC(=O)O)CC(=O)O)CCN(CC(=O)O)CC(=O)O               n
 7                               OCCN1CCNCC1               n
 8  CN1[C@@H]2CC(OC(=O)[C@H](CO)c3ccccc3)C[C@H]1[C@@H]1O[C@@H]12 (some centres undefined)               n
 9                   Cc1ccc2sc3cccc(C)c3c2c1               n
10  C=C(C)C(=O)O[C@H]1C[C@@H]2CC[C@@]1(C)C2(C)C               n
11  C[C@H]1C[C@@H]2[C@H]([C@@H](O)C[C@@]3(C)[C@H]2CC[C@]3(O)C(=O)CO)[C@@]2(C)C=CC(=O)C=C12               n
12                       O=c1[nH]nnc2ccccc12               n
13                          c1ccc2[nH]ccc2c1               n
14                         COCCOCCOCCOCCOCCO               n
15                              NCCCN1CCOCC1               n
16                        C=CC[N+](C)(C)CC=C               n
17  CC1(C)[C@H](C(=O)OCc2cccc(Oc3ccccc3)c2)[C@@H]1C=C(Cl)Cl               n
18         COc1cc(C(C)(C)C)c(O)c(C(C)(C)C)c1               n
19                           Cc1ccc2ccccc2n1               n
20                                 COC(=O)OC               n
21                             Cc1ccc(C=O)s1               n
22  C=CC(=O)OCC(O)COc1ccccc1 (centres undefined)               n
23                     CO[Si](C)(OC)c1ccccc1               n
24                          C=COCCOCCOCCOC=C               n
25                         CN(C)C(=N)N=C(N)N               n
26                            COc1cccc(OC)c1               n
27                       O=C(O)c1snc(Cl)c1Cl               n
28  FC1(F)C(F)(F)C(F)(F)C2(F)C(F)(C1(F)F)C(F)(F)C(F)(F)C1(F)C(F)(F)C(F)(F)C(F)(F)C(F)(F)C12F (centres undefined)               n
29  O=[N+]([O-])c1ccc(Nc2ccc(Nc3ccccc3)c(S(=O)(=O)O)c2)c([N+](=O)[O-])c1               n
30  COC(=O)C1=C(C)NC(C)=C(C(=O)OCCN(C)Cc2ccccc2)C1c1cccc([N+](=O)[O-])c1 (centres undefined)               n
31         O=c1cc(-c2ccccc2)oc2cc(O)cc(O)c12               n
32  CC(CC(C)(C)C)CC(C)(C)CC(C)(C)C (centres undefined)               n
33   CC(C)OP(=O)(CP(=O)(OC(C)C)OC(C)C)OC(C)C               n
34               O=S(=O)(O)c1ccc(O)c2ncccc12               n
35                              Cc1ccccc1C=O               n
36                Cc1c(Cl)c(=O)oc2cc(O)ccc12               n
37            O=C(OCc1ccccc1)C(=O)OCc1ccccc1               n
38  C[C@H]1C[C@H]2[C@@H]3CCC4=CC(=O)C=C[C@]4(C)[C@@]3(F)[C@@H](O)C[C@]2(C)[C@@]1(O)C(=O)COP(=O)(O)O               n
39     CC(C)(COC(=O)c1ccccc1)COC(=O)c1ccccc1               n
40             O=Cc1ccc(Cl)c([N+](=O)[O-])c1               n
41   CCCCCCCCCCCCN(CCCCCCCCCCCC)CCCCCCCCCCCC               n
42                               CCCCCCCCCCN               n
43    CCC(C)(O)CCC=C(C)C (centres undefined)               n
44  CC(C)(Oc1ccc(CCNC(=O)c2ccc(Cl)cc2)cc1)C(=O)O               y
45                              CC(=O)C(C)=O               n
46                     C=C[C@@H](C)CCC=C(C)C               n
47                       CC(=O)Nc1ccc(C)cc1C               n
48  CCN(CC)c1ccc2c(-c3ccccc3C(=O)O)c3ccc(=[N+](CC)CC)cc-3oc2c1               n
49            CC(O)C(C)O (centres undefined)               n
50                    CC(C)=CCC/C(C)=C/COC=O               n
51  C[C@]12CC[C@H]3[C@@H](CCC4=CC(=O)CC[C@@]43C)[C@@H]1CC[C@@H]2C(=O)CO               n
52  CCCCCCCCCCC(CO)CCCCCCCC (centres undefined)               n
53      CC(C)=CCC[C@](C)(O)[C@@H]1CC=C(C)CC1               n
54                           CN(C)CCOCCN(C)C               n
